// data source = patent US10907134B2

# Experimental details: Substrate specificities of KAZ mutants (ZZ-fused, crude enzyme), bis-CTZ
# Format: biochemical
# Experimental setup: 1 μg substrate, maximum intensity of luminescence
Measure: Relative Luminescence Activity bis-CTZ Imax
Lab note: write the figure by itself, no unit.

Inquiry: Look up Relative Luminescence Activity bis-CTZ Imax for this molecule: KAZ-V44I-Y138I: KAZ mutant with two amino acid substitutions V44I and Y138I, SEQ ID NO: 12 (protein) FTLADFVGDWQQTAGYNQDQVLEQGGLSSLFQALGVSVTPIQKIVLSGENGLKADIHVIIPYEGLSGFQMGLIEMIFKVVYPVDDHHFKIILHYGTLVIDGVTPNMIDYFGRPYPGIAVFDGKQITVTGTLWNGNKIIDERLINPDGSLLFRVTINGVTGWRLCENILA
Reply text: 7.9

Inquiry: Any idea what Relative Luminescence Activity bis-CTZ Imax was measured for KAZ: wild 19 kDa catalytic protein of Oplophorus luciferase (19kOLase), amino acid sequence SEQ ID NO: 2 (protein, listed as Oplophorus gracilirostris) FTLADFVGDWQQTAGYNQDQVLEQGGLSSLFQALGVSVTPIQKVVLSGENGLKADIHVIIPYEGLSGFQMGLIEMIFKVVYPVDDHHFKIILHYGTLVIDGVTPNMIDYFGRPYPGIAVFDGKQITVTGTLWNGNKIYDERLINPDGSLLFRVTINGVTGWRLCENILA ?
Reply text: 0.6

Inquiry: Using the record for KAZ-A54I: KAZ with single amino acid substitution A54I, SEQ ID NO: 6 (protein) FTLADFVGDWQQTAGYNQDQVLEQGGLSSLFQALGVSVTPIQKVVLSGENGLKIDIHVIIPYEGLSGFQMGLIEMIFKVVYPVDDHHFKIILHYGTLVIDGVTPNMIDYFGRPYPGIAVFDGKQITVTGTLWNGNKIYDERLINPDGSLLFRVTINGVTGWRLCENILA , report its Relative Luminescence Activity bis-CTZ Imax.
Reply text: 3.0
